- study system: GST-Nv-NF-kB (Cys allele) (Nematostella vectensis, UniProt E5G601 2-411)
- Sequence: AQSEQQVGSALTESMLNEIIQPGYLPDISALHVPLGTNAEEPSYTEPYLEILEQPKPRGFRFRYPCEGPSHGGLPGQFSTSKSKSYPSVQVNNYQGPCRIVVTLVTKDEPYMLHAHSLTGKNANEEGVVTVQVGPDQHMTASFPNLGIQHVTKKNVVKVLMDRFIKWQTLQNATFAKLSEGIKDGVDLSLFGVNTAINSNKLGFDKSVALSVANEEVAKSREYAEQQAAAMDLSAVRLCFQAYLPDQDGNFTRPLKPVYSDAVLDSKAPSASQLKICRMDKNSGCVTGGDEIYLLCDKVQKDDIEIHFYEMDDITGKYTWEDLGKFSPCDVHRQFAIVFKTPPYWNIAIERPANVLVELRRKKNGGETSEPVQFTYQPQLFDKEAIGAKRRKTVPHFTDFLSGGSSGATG
- assay name: protein-binding microarray (PBM); PBM: ~300 nM protein, 6 mM HEPES pH 7.8, 80 mM KCl, 0.5 mM EDTA, 0.5 mM EGTA, 6% glycerol, 35 ng/ul poly-dIdC, 1% milk, 1 h, room temperature; high values mean tight binding
- experimental parameters: dsDNA, one strand shown
readout name: binding signal (z-score)
Record the value in z-score, omitting the unit from your answer.

The examples below pair each entry with its known result.
CCGATTAACATCAGGTAATTACCTGATGTTAATCGGGTCTTGATTCGCTTGACGCTGCTG | 4.18
CCGATTAACATCACGGGGAAATCTGATGTTAATCGGGTCTTGATTCGCTTGACGCTGCTG | 8.56
CCGATTAACATCAGGGGAAGGTATGATGTTAATCGGGTCTTGATTCGCTTGACGCTGCTG | 4.71
CCGATTAACATCAGGCCTTTCCCTGATGTTAATCGGGTCTTGATTCGCTTGACGCTGCTG | 4.72

Switching to the query record.
Using known records, supply binding signal for CCGATTAACATCAGCTCCCCCCCTGATGTTAATCGGGTCTTGATTCGCTTGACGCTGCTG
3.87

----------
- study system: GST-Nv-NF-kB (Cys allele) (Nematostella vectensis, UniProt E5G601 2-411)
- Sequence: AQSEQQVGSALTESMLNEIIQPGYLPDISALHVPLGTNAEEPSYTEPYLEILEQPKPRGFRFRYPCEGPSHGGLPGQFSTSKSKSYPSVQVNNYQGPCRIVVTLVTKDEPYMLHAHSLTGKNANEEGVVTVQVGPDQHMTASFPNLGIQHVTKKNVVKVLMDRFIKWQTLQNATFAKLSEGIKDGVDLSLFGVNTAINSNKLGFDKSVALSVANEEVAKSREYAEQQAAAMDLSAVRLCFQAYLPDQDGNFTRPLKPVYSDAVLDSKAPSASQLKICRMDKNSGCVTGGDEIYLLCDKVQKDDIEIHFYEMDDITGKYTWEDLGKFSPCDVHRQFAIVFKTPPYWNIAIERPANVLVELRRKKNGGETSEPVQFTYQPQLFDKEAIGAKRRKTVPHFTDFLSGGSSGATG
- assay name: protein-binding microarray (PBM); PBM: ~300 nM protein, 6 mM HEPES pH 7.8, 80 mM KCl, 0.5 mM EDTA, 0.5 mM EGTA, 6% glycerol, 35 ng/ul poly-dIdC, 1% milk, 1 h, room temperature; high values mean tight binding
- experimental parameters: dsDNA, one strand shown
Output yes for binding signal not less than 5 z-score; output no otherwise.

Solved entries:
CCGATTAACATCACAAACTTCCCTGATGTTAATCGGGTCTTGATTCGCTTGACGCTGCTG | no
CCGATTAACATCACAGATTTCCCTGATGTTAATCGGGTCTTGATTCGCTTGACGCTGCTG | yes
CCGATTAACATCAGGGAACAACCTGATGTTAATCGGGTCTTGATTCGCTTGACGCTGCTG | no
CCGATTAACATCAGGGCTTCCCCTGATGTTAATCGGGTCTTGATTCGCTTGACGCTGCTG | yes
CCGATTAACATCAGGGTGTTTTATGATGTTAATCGGGTCTTGATTCGCTTGACGCTGCTG | no

Answer whether binding signal of CCGATTAACATCAAAAAAACACCTGATGTTAATCGGGTCTTGATTCGCTTGACGCTGCTG is greater than or equal to 5 z-score.
no

Is the recorded value of binding signal equal to or greater than 5 z-score for this sequence? CCGATTAACATCAGGGAATACACTGATGTTAATCGGGTCTTGATTCGCTTGACGCTGCTG
no

binding signal >= 5 z-score for CCGATTAACATCAGGGACAACCCTGATGTTAATCGGGTCTTGATTCGCTTGACGCTGCTG ?
no

I'd appreciate it if you could say whether CCGATTAACATCACCCTTTCCCCTGATGTTAATCGGGTCTTGATTCGCTTGACGCTGCTG has binding signal at least equal to 5 z-score.
yes

Hi team, for CCGATTAACATCAGTTTCCCCCATGATGTTAATCGGGTCTTGATTCGCTTGACGCTGCTG , is the recorded binding signal at or above 5 z-score?
yes

API: above_or_equal(metric=binding signal, cutoff=5 z-score) for item CCGATTAACATCAAGGAAGTCCCTGATGTTAATCGGGTCTTGATTCGCTTGACGCTGCTG
yes

Hi team, for CCGATTAACATCACGTTTCCCCCTGATGTTAATCGGGTCTTGATTCGCTTGACGCTGCTG , is the recorded binding signal at or above 5 z-score?
yes

Is binding signal at least 5 z-score? Consider CCGATTAACATCAAAAGAACCCCTGATGTTAATCGGGTCTTGATTCGCTTGACGCTGCTG
no

Check the entry CCGATTAACATCAGGGCAAACCCTGATGTTAATCGGGTCTTGATTCGCTTGACGCTGCTG : does binding signal equal or exceed 5 z-score?
no

# bool: binding signal of CCGATTAACATCAGGGAATTACCTGATGTTAATCGGGTCTTGATTCGCTTGACGCTGCTG >= 5 z-score
yes

Hi, just wondering whether CCGATTAACATCAAAAATTCCCGTGATGTTAATCGGGTCTTGATTCGCTTGACGCTGCTG shows binding signal of 5 z-score or higher.
yes

Is it the case that CCGATTAACATCAGATTTCCCACTGATGTTAATCGGGTCTTGATTCGCTTGACGCTGCTG has binding signal reaching or exceeding 5 z-score?
no

Given CCGATTAACATCAGGGAAAGATATGATGTTAATCGGGTCTTGATTCGCTTGACGCTGCTG , state whether its binding signal is at least 5 z-score.
no

----------
- study system: GST-Dm-Relish (Drosophila melanogaster, UniProt Q94527 99-473)
- Sequence: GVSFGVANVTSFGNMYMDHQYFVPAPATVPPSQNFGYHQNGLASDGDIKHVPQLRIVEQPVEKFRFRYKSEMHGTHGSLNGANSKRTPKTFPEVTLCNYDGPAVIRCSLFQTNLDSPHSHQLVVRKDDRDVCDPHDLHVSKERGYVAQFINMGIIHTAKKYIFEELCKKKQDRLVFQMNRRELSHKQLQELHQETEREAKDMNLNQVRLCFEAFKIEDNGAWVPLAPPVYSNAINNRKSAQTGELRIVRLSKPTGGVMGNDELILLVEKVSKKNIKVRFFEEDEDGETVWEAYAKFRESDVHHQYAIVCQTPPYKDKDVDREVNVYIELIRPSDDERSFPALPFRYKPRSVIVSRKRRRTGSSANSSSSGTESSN
- assay name: protein-binding microarray (PBM); PBM: ~300 nM protein, 6 mM HEPES pH 7.8, 80 mM KCl, 0.5 mM EDTA, 0.5 mM EGTA, 6% glycerol, 35 ng/ul poly-dIdC, 1% milk, 1 h, room temperature; high values mean tight binding
- experimental parameters: dsDNA, one strand shown
Attribute: binding signal
Report the value in z-score with no unit label.

See these solved cases before continuing.
CCGATTAACATCAGGGGGTTTACTGATGTTAATCGGGTCTTGATTCGCTTGACGCTGCTG | 9.74
CCGATTAACATCACCCACTCCCCTGATGTTAATCGGGTCTTGATTCGCTTGACGCTGCTG | 1.47
CCGATTAACATCATATGGGAAAATGATGTTAATCGGGTCTTGATTCGCTTGACGCTGCTG | 1.12

Now look at this entry.
# return recorded binding signal for input CCGATTAACATCAGGATTTTACCTGATGTTAATCGGGTCTTGATTCGCTTGACGCTGCTG
3.21

----------
- study system: GST-Ap-NF-kB RHD (Exaiptasia pallida (Aiptasia), UniProt A0A913YAJ5 2-422)
- Sequence: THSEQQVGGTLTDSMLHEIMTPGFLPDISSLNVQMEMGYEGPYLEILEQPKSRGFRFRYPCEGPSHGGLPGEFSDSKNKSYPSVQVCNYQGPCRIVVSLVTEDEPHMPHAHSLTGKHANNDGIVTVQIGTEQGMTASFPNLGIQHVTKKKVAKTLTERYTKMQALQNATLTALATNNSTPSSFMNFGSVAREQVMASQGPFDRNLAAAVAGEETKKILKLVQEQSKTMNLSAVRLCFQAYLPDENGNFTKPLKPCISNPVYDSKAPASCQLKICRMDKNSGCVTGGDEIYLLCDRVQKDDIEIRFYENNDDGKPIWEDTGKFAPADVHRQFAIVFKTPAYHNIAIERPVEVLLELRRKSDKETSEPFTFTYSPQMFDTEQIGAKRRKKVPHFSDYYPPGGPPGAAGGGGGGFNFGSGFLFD
- assay name: protein-binding microarray (PBM); PBM: ~300 nM protein, 6 mM HEPES pH 7.8, 80 mM KCl, 0.5 mM EDTA, 0.5 mM EGTA, 6% glycerol, 35 ng/ul poly-dIdC, 1% milk, 1 h, room temperature; Ap Aiptasia and Nv Nematostella (sea anemones) / Co Capsaspora / Aq Amphimedon (sponge) / Dm Drosophila / Hu human; RHD is the Rel homology domain; high values mean tight binding
- experimental parameters: dsDNA, one strand shown
# if value of binding signal reaches 4 z-score, tag Fulfilled; if it stays below, tag Not fulfilled

Example entries and their recorded answers appear below.
CCGATTAACATCACGGAACCCCCTGATGTTAATCGGGTCTTGATTCGCTTGACGCTGCTG | Fulfilled
CCGATTAACATCAAATCATCCCCTGATGTTAATCGGGTCTTGATTCGCTTGACGCTGCTG | Fulfilled
CCGATTAACATCACGGGAACACCTGATGTTAATCGGGTCTTGATTCGCTTGACGCTGCTG | Not fulfilled
CCGATTAACATCAGGGGAGCACCTGATGTTAATCGGGTCTTGATTCGCTTGACGCTGCTG | Fulfilled

State whether the measured binding signal reaches 4 z-score, counting equality as reaching it, for CCGATTAACATCAGGGGAATTTATGATGTTAATCGGGTCTTGATTCGCTTGACGCTGCTG
Fulfilled

# bool: binding signal of CCGATTAACATCAGGATTGCCCCTGATGTTAATCGGGTCTTGATTCGCTTGACGCTGCTG >= 4 z-score
Not fulfilled

Exam item: decide whether the reported binding signal for CCGATTAACATCAGGGGGATGGATGATGTTAATCGGGTCTTGATTCGCTTGACGCTGCTG is at least 4 z-score.
Not fulfilled

Textbook exercise: given the entry CCGATTAACATCACGGGAATACCTGATGTTAATCGGGTCTTGATTCGCTTGACGCTGCTG , state whether its binding signal is greater than or equal to 4 z-score.
Fulfilled

Quick check, binding signal >= 4 z-score? CCGATTAACATCAGGCAACCCCATGATGTTAATCGGGTCTTGATTCGCTTGACGCTGCTG
Not fulfilled

# bool: binding signal of CCGATTAACATCAGGGGAACCTATGATGTTAATCGGGTCTTGATTCGCTTGACGCTGCTG >= 4 z-score
Fulfilled

Has CCGATTAACATCACAAAAGCCCCTGATGTTAATCGGGTCTTGATTCGCTTGACGCTGCTG a recorded binding signal greater than or equal to 4 z-score?
Fulfilled

Evaluate CCGATTAACATCAAATTCCCGGGTGATGTTAATCGGGTCTTGATTCGCTTGACGCTGCTG : binding signal at minimum 4 z-score?
Not fulfilled

Determine whether measured binding signal meets or exceeds 4 z-score for CCGATTAACATCACGGCAATCCCTGATGTTAATCGGGTCTTGATTCGCTTGACGCTGCTG
Not fulfilled

I'd appreciate it if you could say whether CCGATTAACATCACTGGGATTTCTGATGTTAATCGGGTCTTGATTCGCTTGACGCTGCTG has binding signal at least equal to 4 z-score.
Not fulfilled

Hi, just wondering whether CCGATTAACATCAAAAATTGCCCTGATGTTAATCGGGTCTTGATTCGCTTGACGCTGCTG shows binding signal of 4 z-score or higher.
Not fulfilled
